target.or.test.system: T1r2a/T1r3 full-length receptor (Oryzias latipes, UniProt A0A173M094+A0A173M0G2)
Sequence (A0A173M0G2 entry or part of it): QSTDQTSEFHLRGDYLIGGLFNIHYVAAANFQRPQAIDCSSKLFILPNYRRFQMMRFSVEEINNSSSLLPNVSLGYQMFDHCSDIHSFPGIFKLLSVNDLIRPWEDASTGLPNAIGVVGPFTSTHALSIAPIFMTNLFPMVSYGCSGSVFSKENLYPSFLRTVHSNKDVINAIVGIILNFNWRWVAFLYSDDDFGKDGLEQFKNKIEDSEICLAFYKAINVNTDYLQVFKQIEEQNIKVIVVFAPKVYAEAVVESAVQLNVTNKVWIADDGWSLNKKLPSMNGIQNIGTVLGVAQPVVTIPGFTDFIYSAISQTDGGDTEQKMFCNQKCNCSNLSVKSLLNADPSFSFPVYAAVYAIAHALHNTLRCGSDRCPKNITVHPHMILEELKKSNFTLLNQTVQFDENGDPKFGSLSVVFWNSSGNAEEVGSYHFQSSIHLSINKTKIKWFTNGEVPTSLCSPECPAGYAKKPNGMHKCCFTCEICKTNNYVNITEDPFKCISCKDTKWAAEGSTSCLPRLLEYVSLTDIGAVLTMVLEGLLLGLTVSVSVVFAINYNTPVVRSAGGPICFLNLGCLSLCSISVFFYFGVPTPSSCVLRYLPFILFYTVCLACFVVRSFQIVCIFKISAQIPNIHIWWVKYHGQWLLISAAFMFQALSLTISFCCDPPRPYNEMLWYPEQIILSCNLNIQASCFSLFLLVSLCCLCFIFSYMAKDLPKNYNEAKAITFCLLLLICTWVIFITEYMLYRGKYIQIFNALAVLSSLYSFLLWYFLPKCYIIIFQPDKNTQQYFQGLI
Sequence (A0A173M094 entry or part of it): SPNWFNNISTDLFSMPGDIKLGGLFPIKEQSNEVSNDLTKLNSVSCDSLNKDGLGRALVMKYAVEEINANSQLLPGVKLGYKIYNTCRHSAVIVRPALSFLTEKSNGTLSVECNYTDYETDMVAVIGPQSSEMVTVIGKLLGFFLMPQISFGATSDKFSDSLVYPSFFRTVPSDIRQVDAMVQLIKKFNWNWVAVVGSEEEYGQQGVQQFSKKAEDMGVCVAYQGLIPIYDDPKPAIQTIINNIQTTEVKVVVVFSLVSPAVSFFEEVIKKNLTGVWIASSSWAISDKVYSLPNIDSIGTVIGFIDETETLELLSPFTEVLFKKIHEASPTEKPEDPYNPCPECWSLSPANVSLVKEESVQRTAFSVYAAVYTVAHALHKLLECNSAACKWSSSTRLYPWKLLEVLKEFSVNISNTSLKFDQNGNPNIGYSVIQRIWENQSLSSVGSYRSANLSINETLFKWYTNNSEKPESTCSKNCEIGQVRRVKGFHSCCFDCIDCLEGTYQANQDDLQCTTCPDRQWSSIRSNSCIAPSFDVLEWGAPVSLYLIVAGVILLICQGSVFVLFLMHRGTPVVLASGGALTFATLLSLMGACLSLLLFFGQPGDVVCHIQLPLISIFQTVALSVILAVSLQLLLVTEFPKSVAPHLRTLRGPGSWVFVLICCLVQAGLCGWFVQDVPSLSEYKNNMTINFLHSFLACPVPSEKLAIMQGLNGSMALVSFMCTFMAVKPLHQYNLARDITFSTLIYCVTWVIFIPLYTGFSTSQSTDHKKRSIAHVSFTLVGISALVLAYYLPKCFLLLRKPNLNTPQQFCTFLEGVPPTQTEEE
protocol: Ca2+-flux receptor response assay in Flip-In 293 cells stably expressing full-length T1r2a, T1r3 and Gα16-gust44
Type: cell-based, O. latipes
experimental.parameters: 5 mM amino acid; average ± s.e.m., n = 6 (n = 12 for L-glutamine)
Overview of reported ΔRFU across a group of molecules:

- molecule: "CC(C)C[C@H](N)C(=O)O"
  ΔRFU: 0.933
- molecule: "CC[C@H](C)[C@H](N)C(=O)O"
  ΔRFU: 2.90
- molecule: "N[C@@H](Cc1c[nH]cn1)C(=O)O"
  ΔRFU: 4.72
- molecule: "CC(C)[C@H](N)C(=O)O"
  ΔRFU: 3.89
- molecule: "N=C(N)NCCC[C@H](N)C(=O)O"
  ΔRFU: 68.2
- molecule: "N[C@@H](Cc1ccccc1)C(=O)O"
  ΔRFU: 2.08
- molecule: "N[C@@H](CCC(=O)O)C(=O)O [L-Glu, glutamate]"
  ΔRFU: 3.73
- molecule: "NCCCC[C@H](N)C(=O)O"
  ΔRFU: 8.68
- molecule: "CSCC[C@H](N)C(=O)O"
  ΔRFU: -2.52
- molecule: "N[C@@H](CC(=O)O)C(=O)O [L-Asp, L-aspartate]"
  ΔRFU: -4.00
- molecule: "C[C@@H](O)[C@H](N)C(=O)O"
  ΔRFU: 3.20
- molecule: "NCC(=O)O"
  ΔRFU: 13.4
- molecule: "O=C(O)[C@@H]1CCCN1"
  ΔRFU: 2.90
- molecule: "N[C@@H](CO)C(=O)O"
  ΔRFU: 11.5
- molecule: "C[C@@H](N)C(=O)O"
  ΔRFU: 7.08
- molecule: "C[C@H](N)C(=O)O"
  ΔRFU: 64.7
- molecule: "NC(=O)C[C@H](N)C(=O)O"
  ΔRFU: 0.460
- molecule: "NC(=O)CC[C@H](N)C(=O)O"
  ΔRFU: 104.3

----------
Overview of reported ΔTm across a group of compounds:
target.or.test.system: medaka T1r2a/T1r3LBD (Oryzias latipes, UniProt A0A173M094+A0A173M0G2)
protocol: Differential scanning fluorimetry (DSF) thermal shift ligand-binding assay
Design: species or system O. latipes
experimental.parameters: 1 mM amino acid; average ± s.e.m., n = 4

- compound: "NC(=O)CC[C@H](N)C(=O)O"
  u: "K"
  ΔTm: 10.80
- compound: "C[C@H](N)C(=O)O"
  u: "K"
  ΔTm: 6.92
- compound: "N[C@@H](CCC(=O)O)C(=O)O [L-Glu, glutamate]"
  u: "K"
  ΔTm: 0.48
- compound: "N[C@@H](Cc1c[nH]cn1)C(=O)O"
  u: "K"
  ΔTm: 1.21
- compound: "N[C@@H](Cc1ccccc1)C(=O)O"
  u: "K"
  ΔTm: 1.04
- compound: "N=C(N)NCCC[C@H](N)C(=O)O"
  u: "K"
  ΔTm: 6.98
- compound: "CC(C)[C@H](N)C(=O)O"
  u: "K"
  ΔTm: -0.77
- compound: "N[C@@H](CO)C(=O)O"
  u: "K"
  ΔTm: -1.20
- compound: "NCCCC[C@H](N)C(=O)O"
  u: "K"
  ΔTm: -0.40
- compound: "CSCC[C@H](N)C(=O)O"
  u: "K"
  ΔTm: 6.17
- compound: "NC(=O)C[C@H](N)C(=O)O"
  u: "K"
  ΔTm: 0.38
- compound: "CC[C@H](C)[C@H](N)C(=O)O"
  u: "K"
  ΔTm: -0.57
